Target: MAP kinase-activated protein kinase 2 (Homo sapiens, UniProt P49137)
Sequence (P49137 whole entry): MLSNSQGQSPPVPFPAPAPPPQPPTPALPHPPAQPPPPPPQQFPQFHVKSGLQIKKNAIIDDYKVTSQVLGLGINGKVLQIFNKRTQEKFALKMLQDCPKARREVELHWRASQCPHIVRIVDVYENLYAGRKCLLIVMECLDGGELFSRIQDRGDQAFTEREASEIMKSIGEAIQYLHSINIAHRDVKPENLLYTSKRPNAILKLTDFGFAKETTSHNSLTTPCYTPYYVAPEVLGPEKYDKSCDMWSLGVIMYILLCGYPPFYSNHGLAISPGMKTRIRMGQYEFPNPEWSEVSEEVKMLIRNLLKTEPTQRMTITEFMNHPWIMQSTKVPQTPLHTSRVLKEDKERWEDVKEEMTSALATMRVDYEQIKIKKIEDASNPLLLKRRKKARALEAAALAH
Test: Inhibition of MK2 (unknown origin)
reported_metric: pIC50
Entry type: numeric. Quantity: pIC50, the -log10 of concentration in molar units.

INPUT: pIC50 of CC(Nc1nc(-c2cccc(N(C)C)c2)cnc1N)c1ccccc1 (racemic) on MAP kinase-activated protein kinase 2 (Homo sapiens, UniProt P49137)?
OUTPUT: 6.12

* * *

Test: Metabolic stability in human liver microsome assessed as intrinsic clearance measured up to 60 mins by HPLC-MS/MS analysis
Assay type: ADME
Conditions: liver microsomes, read-out: CLH
reported_metric: microsomal CLint (µL/min/mg)

(P) CC(=O)Nc1cccc(-c2cnc(N)c(N[C@H](C)c3ccccc3)n2)c1
(Q) CC(Nc1nc(-c2cccc(N(C)C)c2)cnc1N)c1ccccc1 (racemic)
INPUT: // select label with min value of measured microsomal CLint from [ P , Q ] // return label of chosen record
OUTPUT: P

* * *

Assay: Plasma protein binding in human
Type: ADME, cell-free
Settings: read-out: PPB (converted)
reported_metric: fraction unbound

(P) CC(=O)Nc1cccc(-c2cnc(N)c(N[C@H](C)c3ccccc3)n2)c1
(Q) CC(Nc1nc(-c2cccc(N(C)C)c2)cnc1N)c1ccccc1 (racemic)
INPUT: Of P and Q , whose reported fraction unbound is the larger number? // return label of chosen record
OUTPUT: P

* * *

Target: Signal transducer and activator of transcription 3 (Homo sapiens) (UniProt P40763)
Sequence (P40763 whole entry, the tested form may be a part): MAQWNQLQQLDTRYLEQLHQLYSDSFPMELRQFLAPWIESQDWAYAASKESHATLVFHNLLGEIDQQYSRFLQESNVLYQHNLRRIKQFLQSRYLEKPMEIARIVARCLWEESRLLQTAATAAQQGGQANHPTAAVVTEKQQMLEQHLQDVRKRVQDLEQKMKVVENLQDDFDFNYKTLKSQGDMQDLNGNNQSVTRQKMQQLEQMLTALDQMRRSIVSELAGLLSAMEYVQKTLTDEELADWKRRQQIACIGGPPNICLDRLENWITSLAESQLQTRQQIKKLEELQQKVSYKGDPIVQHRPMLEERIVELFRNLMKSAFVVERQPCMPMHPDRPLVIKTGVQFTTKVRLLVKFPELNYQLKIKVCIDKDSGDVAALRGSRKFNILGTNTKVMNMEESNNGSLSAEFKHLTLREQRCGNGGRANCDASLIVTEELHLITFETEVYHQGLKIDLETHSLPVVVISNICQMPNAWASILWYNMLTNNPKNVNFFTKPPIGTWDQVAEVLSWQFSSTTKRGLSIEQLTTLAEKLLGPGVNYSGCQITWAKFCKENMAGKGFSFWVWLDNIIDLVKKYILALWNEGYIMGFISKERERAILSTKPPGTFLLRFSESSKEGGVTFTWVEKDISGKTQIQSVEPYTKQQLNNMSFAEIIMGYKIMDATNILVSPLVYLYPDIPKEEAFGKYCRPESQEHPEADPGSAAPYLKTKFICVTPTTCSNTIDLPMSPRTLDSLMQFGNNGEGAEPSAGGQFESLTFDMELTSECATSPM
Experiment: Induction of thermal stabilization of recombinant STAT3 (127 to 668 residues)(unknown origin) assessed as reduction in fluorescence intensity incubated for 3 hrs by SYPRO orange dye based DSF analysis
Conditions: dose 100.0 µM
reported_metric: Activity

CC(C)Oc1cccc(-c2cnc(N)c(NC(C)c3ccccc3)n2)c1 (racemic); Dose-dependent-effect
CC(Nc1nc(-c2cc(Cl)cc(Cl)c2)cnc1N)c1ccccc1 (racemic); Dose-dependent-effect
COc1cccc(OC)c1-c1cnc(N)c(NC(C)c2ccccc2)n1 (racemic); Dose-dependent-effect

* * *

Target: Proto-oncogene tyrosine-protein kinase Src (Homo sapiens)
Sequence (P12931 2-536 limits assumed): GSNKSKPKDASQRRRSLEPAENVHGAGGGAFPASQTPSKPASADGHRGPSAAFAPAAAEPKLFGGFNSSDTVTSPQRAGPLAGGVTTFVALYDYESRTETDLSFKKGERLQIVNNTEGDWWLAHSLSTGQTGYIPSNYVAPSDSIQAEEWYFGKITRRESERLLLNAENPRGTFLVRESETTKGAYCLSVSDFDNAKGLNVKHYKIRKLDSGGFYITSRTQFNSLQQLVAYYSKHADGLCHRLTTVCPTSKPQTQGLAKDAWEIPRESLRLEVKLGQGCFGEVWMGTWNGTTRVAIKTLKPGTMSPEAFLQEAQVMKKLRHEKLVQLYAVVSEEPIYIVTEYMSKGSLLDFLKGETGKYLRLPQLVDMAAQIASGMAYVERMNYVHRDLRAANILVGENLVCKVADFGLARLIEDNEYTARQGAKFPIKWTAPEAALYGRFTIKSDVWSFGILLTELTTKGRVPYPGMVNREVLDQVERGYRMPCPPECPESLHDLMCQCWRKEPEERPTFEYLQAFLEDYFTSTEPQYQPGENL
reported_metric: IC50 (nM)

C[C@@H](Nc1nc(-c2cccc(N(C)C)c2)cnc1N)c1ccccc1; 1110

(A) CC(=O)Nc1cccc(-c2cnc(N)c(NC(C)c3ccccc3)n2)c1 (racemic)
(B) CC(Nc1nc(-c2cccnc2)cnc1N)c1ccccc1 (racemic)
INPUT: // select label with min value of measured IC50 from [ A , B ] // return label of chosen record
OUTPUT: A

* * *

Test system: KM12
Test: cells
Settings: Homo sapiens, KM12, 72 h
Description: Cytotoxicity against human KM12 cells assessed as inhibition of cell viability incubated for 72 hrs by resazurin based analysis
reported_metric: IC50

Solved entries (count: 2):
CC(Nc1nc(-c2cccc(C(=O)N(C)C)c2)cnc1N)c1ccccc1 (racemic); < 300 nM
C[C@@H](Nc1nc(-c2cccc(N(C)C)c2)cnc1N)c1ccccc1; < 300 nM

INPUT: Bench note: what IC50 did CC(Nc1nc(-c2cccc(N(C)C)c2)cnc1N)c1ccccc1 (racemic) show?
OUTPUT: < 300 nM
